measuredTarget: serotonin uptake sites (Homo sapiens, UniProt P31645)
Sequence (P31645 whole entry): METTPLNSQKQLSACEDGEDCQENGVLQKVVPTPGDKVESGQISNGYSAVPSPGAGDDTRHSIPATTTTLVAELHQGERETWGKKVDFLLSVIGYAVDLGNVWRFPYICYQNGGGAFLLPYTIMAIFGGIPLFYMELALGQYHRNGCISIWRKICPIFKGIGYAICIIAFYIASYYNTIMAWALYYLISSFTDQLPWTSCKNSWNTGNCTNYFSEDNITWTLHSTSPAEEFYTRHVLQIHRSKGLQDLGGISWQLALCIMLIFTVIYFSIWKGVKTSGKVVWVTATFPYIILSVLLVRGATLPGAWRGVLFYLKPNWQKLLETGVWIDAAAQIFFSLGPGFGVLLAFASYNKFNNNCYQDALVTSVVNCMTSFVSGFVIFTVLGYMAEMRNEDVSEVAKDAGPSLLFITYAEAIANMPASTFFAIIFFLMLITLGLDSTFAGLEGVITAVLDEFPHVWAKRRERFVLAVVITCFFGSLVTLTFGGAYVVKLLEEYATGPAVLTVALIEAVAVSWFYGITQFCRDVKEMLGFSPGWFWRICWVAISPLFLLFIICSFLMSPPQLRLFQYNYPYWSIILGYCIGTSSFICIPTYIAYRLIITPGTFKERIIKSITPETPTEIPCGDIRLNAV
testName: [3H] paroxetine displacement test
pKi: −log10 of the molar value.
outcomeMeasure: pKi

Query pKi for Cl.NC1CCN(c2cccc(Cl)n2)CC1 [CM 57227, hydrochloride]
< 5.00

====

measuredTarget: adrenergic sites α2
testName: displacement of labelled specific ligand from adrenergic sites α2
recordedConditions: no affinity
outcomeMeasure: Ki

Query Ki for Cl.NC1CCN(c2cccc(Cl)n2)CC1 [CM 57227, hydrochloride]
> 10 µM

====

measuredTarget: 5-HT3 receptors (Rattus norvegicus)
Sequence (P35563 24-483): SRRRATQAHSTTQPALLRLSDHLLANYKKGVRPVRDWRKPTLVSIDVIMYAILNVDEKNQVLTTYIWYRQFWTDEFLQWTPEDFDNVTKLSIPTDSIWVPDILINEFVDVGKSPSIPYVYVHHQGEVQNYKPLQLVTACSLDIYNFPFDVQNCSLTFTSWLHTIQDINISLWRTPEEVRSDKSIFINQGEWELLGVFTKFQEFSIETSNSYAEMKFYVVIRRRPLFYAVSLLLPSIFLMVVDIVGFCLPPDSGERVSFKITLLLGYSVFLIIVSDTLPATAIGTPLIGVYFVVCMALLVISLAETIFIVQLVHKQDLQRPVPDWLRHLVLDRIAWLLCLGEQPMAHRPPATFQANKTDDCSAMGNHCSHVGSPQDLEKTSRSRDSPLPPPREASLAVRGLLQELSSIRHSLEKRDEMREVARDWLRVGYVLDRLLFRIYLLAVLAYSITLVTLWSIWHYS
testName: biochemical
Type: binding
Set-up: the cortical tissue from 4 animals was homogenized in 20 volumes of HEPES; from tissue; host or cells: cerebral cortical membranes of male rats (about 200 g)
outcomeMeasure: Ki

Query Ki for Cc1[nH]c2ccc(O)cc2c1CCN [2-methylserotonin, reference compound]
1.11 µM

====

measuredTarget: 5-HT3 receptors (Rattus norvegicus)
testName: biochemical
Assay type: binding
Parameters: the cortical tissue from 4 animals was homogenized in 20 volumes of HEPES; from tissue; host or cells: cerebral cortical membranes of male rats (about 200 g)
recordedConditions: 0.5 nM [3H] BRL 43694, 30 minutes at 25° C., rat cortical membranes; read-out: Ki, displacement of [3H] BRL 43694
outcomeMeasure: Ki (µM)
Quick reminder: number only, in µM, skip the unit.

Query Ki for Cl.NC1CCN(c2cccc(Cl)n2)CC1 [CM 57227, hydrochloride]
0.193

====

measuredTarget: adrenergic sites β1 (Homo sapiens, UniProt P08588)
Sequence (P08588 whole entry): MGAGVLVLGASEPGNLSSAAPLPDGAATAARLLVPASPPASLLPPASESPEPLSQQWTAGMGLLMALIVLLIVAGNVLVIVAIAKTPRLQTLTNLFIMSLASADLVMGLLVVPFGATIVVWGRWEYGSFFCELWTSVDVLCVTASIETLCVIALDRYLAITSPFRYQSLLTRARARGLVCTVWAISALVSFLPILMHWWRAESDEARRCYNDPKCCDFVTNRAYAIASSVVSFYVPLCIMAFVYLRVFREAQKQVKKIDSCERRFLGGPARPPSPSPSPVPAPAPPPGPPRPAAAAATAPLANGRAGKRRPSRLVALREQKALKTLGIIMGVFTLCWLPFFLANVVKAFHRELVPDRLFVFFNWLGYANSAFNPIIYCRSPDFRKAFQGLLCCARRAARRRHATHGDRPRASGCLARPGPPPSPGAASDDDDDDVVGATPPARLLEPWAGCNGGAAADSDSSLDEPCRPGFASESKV
outcomeMeasure: Ki

Specify Ki for Cl.NC1CCN(c2cccc(Cl)n2)CC1 [CM 57227, hydrochloride] , system adrenergic sites β1 (Homo sapiens, UniProt P08588).
> 10 µM
